Where do these numbers come from? They come from paper PMC6060382.

# Target entity: PgiCAγ
# Construct: gene PgiCA
# Protocol: stopped-flow CO2 hydrase assay
# Format: biochemical, Porphyromonas gingivalis
# Condition description: CO2 hydration, 10 mM Tris pH 8.3, 0.1 M Na2SO4, 25 °C, 15 min preincubation; read-out: PgiCAγ
pKi: −log10 of the molar value.
Readout: pKi

- Input smiles: "CSc1cccc(NC(=O)NO)c1"
  Target entity: "PgiCAγ"
  Numeric result: 7.22
- Input smiles: "O=C(NO)Nc1ccc([N+](=O)[O-])cc1"
  Target entity: "PgiCAγ"
  Numeric result: 5.57
- Input smiles: "O=C(NO)Nc1ccccc1"
  Target entity: "PgiCAγ"
  Numeric result: 5.19
- Input smiles: "O=C(NO)Nc1ccc(C(F)(F)F)cc1"
  Target entity: "PgiCAγ"
  Numeric result: 5.58

----------
# Target entity: VchCAα (Vibrio cholerae)
# Sequence (Q9KMP6 21-239 limits assumed): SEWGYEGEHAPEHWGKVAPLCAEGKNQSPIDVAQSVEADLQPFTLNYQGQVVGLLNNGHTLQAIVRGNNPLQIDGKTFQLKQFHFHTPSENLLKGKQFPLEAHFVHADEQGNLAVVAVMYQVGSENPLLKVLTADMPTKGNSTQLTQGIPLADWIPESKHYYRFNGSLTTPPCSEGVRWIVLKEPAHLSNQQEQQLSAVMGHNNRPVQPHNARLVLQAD
Kindly apply the following: class 1 if Ki is less than 4 µM, class 0 in every other case.

- Compound: "CCOc1ccccc1NC(=O)NO [compound 13, 13: 2-EtO]"
  Class label: "class 0"
- Compound: "O=C(NO)Nc1ccc(Cl)cc1 [compound 4, 4: 4-Cl]"
  Class label: "class 0"
- Compound: "Cc1ccc(C)c(NC(=O)NO)c1 [compound 9, 9: 2,5-Me2]"
  Class label: "class 1"
- Compound: "Cc1ccccc1NC(=O)NO [compound 3, 3: 2-CH3]"
  Class label: "class 1"
- Compound: "O=C(NO)Nc1ccccc1Cl [compound 5, 5: 2-Cl]"
  Class label: "class 0"
- Compound: "CSc1cccc(NC(=O)NO)c1 [compound 14, 14: 3-MeS]"
  Class label: "class 0"
- Compound: "O=C(NO)Nc1ccc([N+](=O)[O-])cc1 [compound 7, 7: 4-O2N]"
  Class label: "class 1"
- Compound: "O=C(NO)Nc1ccc(F)cc1 [compound 10, 10: 4-F]"
  Class label: "class 0"
- Compound: "Cc1cc(NC(=O)NO)ccc1F [compound 15, 15: 4-F-3-Me]"
  Class label: "class 0"
- Compound: "O=C(NO)Nc1ccc(C(F)(F)F)cc1Cl [compound 18, 18: 4-CF3-2-Cl]"
  Class label: "class 0"
- Compound: "O=C(NO)Nc1c(F)c(F)c(F)c(F)c1F [compound 16, 16: F5]"
  Class label: "class 0"
- Compound: "CCOC(=O)c1cccc(NC(=O)NO)c1 [compound 11, 11: 3-EtOOC]"
  Class label: "class 0"
- Compound: "COc1ccccc1NC(=O)NO [compound 19, 19: 2-MeO]"
  Class label: "class 0"
- Compound: "O=C(NO)Nc1ccccc1 [compound 1, 1: H]"
  Class label: "class 0"
- Compound: "O=C(NO)Nc1ccc(C(F)(F)F)cc1 [compound 17, 17: 4-CF3]"
  Class label: "class 0"
- Compound: "Cc1cc(C)cc(NC(=O)NO)c1 [compound 12, 12: 3,5-Me2]"
  Class label: "class 0"
- Compound: "O=C(NO)Nc1ccc(Oc2ccccc2)cc1 [compound 20, 20: 4-PhO]"
  Class label: "class 0"
- Compound: "Cc1ccc(NC(=O)NO)cc1 [compound 2, 2: 4-CH3]"
  Class label: "class 1"
- Compound: "O=C(NO)Nc1ccccc1[N+](=O)[O-] [compound 8, 8: 2-O2N]"
  Class label: "class 1"
